The reported numbers originate from paper PMC9228592.

tested on: Ca9-22 squamous cell carcinoma cells; assay: Cytotoxicity (MTT, 48 h) against Ca9-22 cells; type: cell-based, human; conditions: average CC50 towards HGF, HPLF, HPC divided by CC50 against Ca9-22
Description: […]
Entries annotated with measured SI (Ca9-22)
Answer as a number with no unit attached.

INSERT INTO results (smilesnotation, measuredattribute, reportedvalue) VALUES
  ('O=C1C(=Cc2ccc(Cl)c(Cl)c2)CN(C(=O)C(Cl)Cl)CC1=Cc1ccc(Cl)c(Cl)c1', 'SI (Ca9-22)', 19.5),
  ('COc1ccc(/C=C2\CN(C(=O)C(Cl)Cl)C/C(=C\c3ccc(OC)cc3)C2=O)cc1', 'SI (Ca9-22)', 15.4),
  ('Cc1ccc(C=C2CN(C(=O)C(Cl)Cl)CC(=Cc3ccc(C)cc3)C2=O)cc1', 'SI (Ca9-22)', 32.1),
  ('O=C1/C(=C/c2ccc3c(c2)OCO3)CN(C(=O)C(Cl)Cl)C/C1=C\c1ccc2c(c1)OCO2', 'SI (Ca9-22)', 25.1);

Next:
Exam item: Item O=C1/C(=C/c2ccc(Cl)cc2)CN(C(=O)C(Cl)Cl)C/C1=C\c1ccc(Cl)cc1 has what recorded SI (Ca9-22)?
Marked response: 28.8
